Assay system: T1, Extracellular domain (ECD) of the canine IL-4 receptor alpha-V5 epitope-AviTag-His Tag (canine)
T1 construct: monomeric form isolated by size exclusion; also called canine IL-4RA-V5-Avi-His; canine IL-4RA
T1 chain: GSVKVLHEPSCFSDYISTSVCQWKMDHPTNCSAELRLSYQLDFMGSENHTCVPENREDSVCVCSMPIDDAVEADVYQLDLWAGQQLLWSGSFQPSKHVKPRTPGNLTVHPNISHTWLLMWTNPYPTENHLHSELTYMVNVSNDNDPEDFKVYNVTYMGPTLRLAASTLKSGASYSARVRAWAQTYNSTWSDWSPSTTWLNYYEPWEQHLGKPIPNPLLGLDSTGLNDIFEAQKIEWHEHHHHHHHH
Assay explanation: SPR, Fab-SASA captured on BSA;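 also: biacore T200 SPR, Fab-SASA variants from E. coli conditioned medium captured on BSA-coated CM5 chip, canine IL-4RA injected 120 s then 420 s dissociation, 1:1 model fit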
Parameter measured: pKd
Just so you know, pKd here is -log10 of the concentration in molar units; reply with that number alone.

Binder	Parameter measured	Numeric readout
TB640_005 Fab-SASA VL-Q27H (Fab, V domains shown, not shown: SASA tag then His-tag) VH: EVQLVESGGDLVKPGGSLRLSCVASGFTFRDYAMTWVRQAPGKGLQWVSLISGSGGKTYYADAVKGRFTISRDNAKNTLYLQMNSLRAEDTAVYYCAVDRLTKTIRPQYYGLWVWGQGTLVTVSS VL: DIVMTQTPLSLSVSPGETASISCRSSHSLLYSIGYNYLDWYLQKPGQSPQGLIYLGSKRASGVPDRFSGSGSGTDFTLRISRVEANDTGVYYCMQGLQSPLTFGQGTKLEIKR	pKd	7.83

// pKd lookup, key: TB640_005 Fab-SASA VH-T28N (Fab, V domains shown, not shown: SASA tag then His-tag) VH: EVQLVESGGDLVKPGGSLRLSCVASGFNFRDYAMTWVRQAPGKGLQWVSLISGSGGKTYYADAVKGRFTISRDNAKNTLYLQMNSLRAEDTAVYYCAVDRLTKTIRPQYYGLWVWGQGTLVTVSS VL: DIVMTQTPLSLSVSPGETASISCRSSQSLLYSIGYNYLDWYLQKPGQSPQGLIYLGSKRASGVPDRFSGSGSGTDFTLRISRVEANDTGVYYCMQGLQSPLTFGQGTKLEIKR 7.95
